// provenance: patent US9725414B2

- run-description: log P by HPLC on reversed-phase column (C 18), EEC Directive 79831 Annex V.A8
- Format: physicochemical
- settings: HPLC reversed-phase C 18, 40° C., 0.1% aqueous formic acid and acetonitrile gradient; several values = mixture of two or more isomers
Recorded logP by entry

# annotated cases, reported logP shown
compound	logP
Cn1nc(C(F)F)c(C(=O)N(C2CC2)C2CCCC3CCCC32)c1F (stereo not drawn) [Example 19]	3.99
CON(C(=O)c1c(C(F)F)nn(C)c1F)C(C)C1CC2CCC1C2 (stereo not drawn) [Example 99]	3.67

Q: Report logP for Cn1nc(C(F)F)c(C(=O)N(CC2CCC3CCCC3C2)C2CC2)c1F (stereo not drawn) [Example 62] please.
A: 4.41
